A collection of compounds and their measured Imax
System: SK-MES-1
Test Name: Cytotoxicity against human SK-MES-1 cells assessed as maximum inhibition of cell viability upto 198 uM incubated for 72 hrs by MTS assay relative to control
Type: functional
Stated Conditions: up to 198 µM
Reported Metric: Imax (%)

[[record]]
compound = "Nc1nc(=O)n([C@H]2C[C@H](O)[C@@H](CO)O2)cc1F"
reported_metric = "Imax"
u = "%"
test_result = 67

[[record]]
compound = "Nc1ccn([C@@H]2O[C@H](CO)[C@@H](O)C2(F)F)c(=O)n1"
reported_metric = "Imax"
u = "%"
test_result = 88

[[record]]
compound = "CC(=O)O[C@H]1C(=O)[C@@]2(C)[C@H]([C@H](OC(=O)c3ccccc3)[C@]3(O)C[C@H](OC(=O)[C@H](O)[C@@H](NC(=O)c4ccccc4)c4ccccc4)C(C)=C1C3(C)C)[C@]1(OC(C)=O)CO[C@@H]1C[C@@H]2O"
reported_metric = "Imax"
u = "%"
test_result = 77

[[record]]
compound = "C[C@H](NP(=S)(OC[C@H]1O[C@@H](n2cc(F)c(=O)[nH]c2=O)C[C@@H]1O)Oc1cccc2ccccc12)C(=O)OCc1ccccc1 (some centres undefined)"
reported_metric = "Imax"
u = "%"
test_result = 97


====

A collection of compounds and their measured Imax
Tested on: PC-3
Test Name: Cytotoxicity against human PC-3 cells assessed as maximum inhibition of cell viability upto 198 uM incubated for 72 hrs by MTS assay relative to control
Format: functional
Stated Conditions: up to 198 µM
Reported Metric: Imax (%)

[[record]]
compound = "C[C@H](NP(=S)(OC[C@@H]1C[C@@H](O)[C@H](n2cnc3c(N)ncnc32)O1)Oc1ccccc1)C(=O)OCc1ccccc1 (some centres not stated)"
test_result = 97

[[record]]
compound = "CC(=O)O[C@H]1C(=O)[C@@]2(C)[C@H]([C@H](OC(=O)c3ccccc3)[C@]3(O)C[C@H](OC(=O)[C@H](O)[C@@H](NC(=O)c4ccccc4)c4ccccc4)C(C)=C1C3(C)C)[C@]1(OC(C)=O)CO[C@@H]1C[C@@H]2O [PACLITAXEL]"
test_result = 62

[[record]]
compound = "C[C@H](NP(=O)(OC[C@@H]1C[C@@H](O)[C@H](n2cnc3c(N)ncnc32)O1)Oc1ccccc1)C(=O)OCc1ccccc1 (some centres not stated) [FOSDESDENOSINE SIPALABENAMIDE]"
test_result = 74

[[record]]
compound = "C[C@H](NP(=O)(OC[C@H]1O[C@@H](n2ccc(N)nc2=O)C(F)(F)[C@@H]1O)Oc1ccccc1)C(=O)OCc1ccccc1 (some centres not stated) [FOSGEMCITABINE PALABENAMIDE]"
test_result = 65

[[record]]
compound = "C[C@H](NP(=S)(OC[C@H]1O[C@@H](n2ccc(N)nc2=O)C(F)(F)[C@@H]1O)Oc1ccccc1)C(=O)OCc1ccccc1 (some centres not stated)"
test_result = 96

[[record]]
compound = "Nc1ccn([C@@H]2O[C@H](CO)[C@@H](O)C2(F)F)c(=O)n1 [GEMCITABINE]"
test_result = 61

[[record]]
compound = "Nc1ncnc2c1ncn2[C@@H]1O[C@H](CO)C[C@H]1O [CORDYCEPIN]"
test_result = 70


====

Test Name: Cytotoxicity against human T24/83 cells assessed as inhibition of cell viability incubated for 72 hrs by MTS assay
Type: functional, cell-based
Stated Conditions: T24/83, 72 h
pIC50: −log10 of the molar value.
Reported Metric: pIC50

[[record]]
compound = "Nc1ccn([C@@H]2O[C@H](CO)[C@@H](O)C2(F)F)c(=O)n1 [GEMCITABINE]"
rel = ">"
test_result = 7.70

[[record]]
compound = "C[C@H](NP(=S)(OC[C@H]1O[C@@H](n2ccc(N)nc2=O)C(F)(F)[C@@H]1O)Oc1ccccc1)C(=O)OCc1ccccc1 (some centres not stated)"
rel = "="
test_result = 6.49

[[record]]
compound = "CC(=O)O[C@H]1C(=O)[C@@]2(C)[C@H]([C@H](OC(=O)c3ccccc3)[C@]3(O)C[C@H](OC(=O)[C@H](O)[C@@H](NC(=O)c4ccccc4)c4ccccc4)C(C)=C1C3(C)C)[C@]1(OC(C)=O)CO[C@@H]1C[C@@H]2O [PACLITAXEL]"
rel = "="
test_result = 8.40

[[record]]
compound = "Nc1ncnc2c1ncn2[C@@H]1O[C@H](CO)C[C@H]1O [CORDYCEPIN]"
rel = "="
test_result = 4.00

[[record]]
compound = "C[C@H](NP(=S)(OC[C@@H]1C[C@@H](O)[C@H](n2cnc3c(N)ncnc32)O1)Oc1ccccc1)C(=O)OCc1ccccc1 (some centres not stated)"
rel = "="
test_result = 4.37

[[record]]
compound = "C[C@H](NP(=O)(OC[C@H]1O[C@@H](n2ccc(N)nc2=O)C(F)(F)[C@@H]1O)Oc1ccccc1)C(=O)OCc1ccccc1 (some centres not stated) [FOSGEMCITABINE PALABENAMIDE]"
rel = "="
test_result = 7.30

[[record]]
compound = "C[C@H](NP(=O)(OC[C@@H]1C[C@@H](O)[C@H](n2cnc3c(N)ncnc32)O1)Oc1ccccc1)C(=O)OCc1ccccc1 (some centres not stated) [FOSDESDENOSINE SIPALABENAMIDE]"
rel = "="
test_result = 4.50


====

Test system: CAKI-2
Test Name: Cytotoxicity against human CAKI-2 cells assessed as inhibition of cell viability incubated for 72 hrs by MTS assay
Format: functional, cell-based
Stated Conditions: CAKI-2, 72 h
Reported Metric: IC50 (µM)

[[record]]
compound = "C[C@H](NP(=S)(OC[C@@H]1C[C@@H](O)[C@H](n2cnc3c(N)ncnc32)O1)Oc1ccccc1)C(=O)OCc1ccccc1 (some centres undefined)"
reported_metric = "IC50"
test_result = 76

[[record]]
compound = "C[C@H](NP(=O)(OC[C@@H]1C[C@@H](O)[C@H](n2cnc3c(N)ncnc32)O1)Oc1ccccc1)C(=O)OCc1ccccc1 (some centres undefined) [FOSDESDENOSINE SIPALABENAMIDE]"
reported_metric = "IC50"
test_result = 102

[[record]]
compound = "CC(=O)O[C@H]1C(=O)[C@@]2(C)[C@H]([C@H](OC(=O)c3ccccc3)[C@]3(O)C[C@H](OC(=O)[C@H](O)[C@@H](NC(=O)c4ccccc4)c4ccccc4)C(C)=C1C3(C)C)[C@]1(OC(C)=O)CO[C@@H]1C[C@@H]2O"
reported_metric = "IC50"
test_result = 0.01

[[record]]
compound = "Nc1ncnc2c1ncn2[C@@H]1O[C@H](CO)C[C@H]1O [CORDYCEPIN]"
reported_metric = "IC50"
test_result = 94.2


====

Test system: SK-MES-1
Test Name: Cytotoxicity against human SK-MES-1 cells assessed as maximum inhibition of cell viability upto 198 uM incubated for 72 hrs by MTS assay relative to control
Assay type: functional
Stated Conditions: up to 198 µM
Reported Metric: Imax

[[record]]
compound = "C[C@H](NP(=S)(OC[C@H]1O[C@@H](n2ccc(N)nc2=O)C(F)(F)[C@@H]1O)Oc1ccccc1)C(=O)OCc1ccccc1 (stereo partly drawn)"
test_result = "94%"

[[record]]
compound = "C[C@H](NP(=O)(OC[C@H]1O[C@@H](n2cc(F)c(=O)[nH]c2=O)C[C@@H]1O)Oc1cccc2ccccc12)C(=O)OCc1ccccc1 (stereo partly drawn) [FOSIFLOXURIDINE NAFALBENAMIDE]"
test_result = "77%"

[[record]]
compound = "C[C@H](NP(=O)(OC[C@H]1O[C@@H](n2ccc(N)nc2=O)C(F)(F)[C@@H]1O)Oc1ccccc1)C(=O)OCc1ccccc1 (stereo partly drawn) [FOSGEMCITABINE PALABENAMIDE]"
test_result = "79%"


====

Test system: A498
Test Name: Cytotoxicity against human A498 cells assessed as maximum inhibition of cell viability upto 198 uM incubated for 72 hrs by MTS assay relative to control
Format: functional
Stated Conditions: up to 198 µM
Reported Metric: Imax (%)

[[record]]
compound = "C[C@H](NP(=O)(OC[C@@H]1C[C@@H](O)[C@H](n2cnc3c(N)ncnc32)O1)Oc1ccccc1)C(=O)OCc1ccccc1 (some centres undefined) [FOSDESDENOSINE SIPALABENAMIDE]"
reported_metric = "Imax"
test_result = 82

[[record]]
compound = "C[C@H](NP(=S)(OC[C@@H]1C[C@@H](O)[C@H](n2cnc3c(N)ncnc32)O1)Oc1ccccc1)C(=O)OCc1ccccc1 (some centres undefined)"
reported_metric = "Imax"
test_result = 95

[[record]]
compound = "CC(=O)O[C@H]1C(=O)[C@@]2(C)[C@H]([C@H](OC(=O)c3ccccc3)[C@]3(O)C[C@H](OC(=O)[C@H](O)[C@@H](NC(=O)c4ccccc4)c4ccccc4)C(C)=C1C3(C)C)[C@]1(OC(C)=O)CO[C@@H]1C[C@@H]2O"
reported_metric = "Imax"
test_result = 74

[[record]]
compound = "Nc1ncnc2c1ncn2[C@@H]1O[C@H](CO)C[C@H]1O [CORDYCEPIN]"
reported_metric = "Imax"
test_result = 18

